System: ducksalad (Heteranthera limosa)
Experiment: Test D flooded paddy test, ducksalad
Assay type: in vivo
Parameters: key: 0 = no effect, 100 = complete control
Settings: 250 g ai/ha, Flood; applied to paddy water at 2-leaf stage; visual rating after 13 days; scale 0 (no effect) to 100 (complete control)
attribute measured: Plant response rating, Ducksalad

>  <molecule>
CO/N=C1\CCN(c2cc(NS(=O)(=O)C(F)(F)F)c(C)cc2C)C1=O [Compound 9]

>  <Plant response rating, Ducksalad>
95

$$$$
>  <molecule>
CCO/N=C1\CCN(c2cc(NS(=O)(=O)C(F)(F)F)c(C)cc2C)C1=O [Compound 12]

>  <Plant response rating, Ducksalad>
100

$$$$
>  <molecule>
Cc1c(N2CCC(OC3CCC3)C2=O)cc(N(COC(=O)C(C)(C)C)S(=O)(=O)C(F)(F)F)c(C)c1F (stereo not shown) [Compound 28]

>  <Plant response rating, Ducksalad>
70

$$$$

Now consider a different molecule.
Exercise: Could you share which Plant response rating, Ducksalad value was measured for CCCC(=O)OCN(c1cc(N2CCC(OC3CC3)C2=O)c(C)cc1C)S(=O)(=O)C(F)(F)F (stereo not shown) [Compound 20] ?
Key: 90

---

Tested on: ragweed (common ragweed, Ambrosia artemisiifolia)
Test: Test C postemergence, ragweed
Type: in vivo
Conditions: 31 g ai/ha Postemergence; visual injury, 0 to 100 scale (0 no effect, 100 complete control)
Listed next: entries and their corresponding Ragweed plant response rating.
Give the figure by itself; no unit, no explanation.

Examples from the recorded data:
>  <molecule>
Cc1cc(C)c(N2CCC(O)C2=O)cc1NS(=O)(=O)C(F)(F)F (centres unmarked) [Compound 14]

>  <study target>
ragweed (common ragweed, Ambrosia artemisiifolia)

>  <attribute measured>
Ragweed plant response rating

>  <test value>
60

$$$$
>  <molecule>
C#CCO/N=C1\CCN(c2cc(NS(=O)(=O)C(F)(F)F)c(C)cc2C)C1=O [Compound 13]

>  <study target>
ragweed (common ragweed, Ambrosia artemisiifolia)

>  <attribute measured>
Ragweed plant response rating

>  <test value>
80

$$$$
>  <molecule>
Cc1cc(C)c(N2CCC(OCc3ccccc3)C2=O)cc1NS(=O)(=O)C(F)(F)F (centres unmarked) [Compound 61]

>  <study target>
ragweed (common ragweed, Ambrosia artemisiifolia)

>  <attribute measured>
Ragweed plant response rating

>  <test value>
50

$$$$
>  <molecule>
Cc1c(N2CCCC(OC3CC3)C2=O)cc(N(COC(=O)C(C)(C)C)S(=O)(=O)C(F)(F)F)c(C)c1F (centres unmarked) [Compound 37]

>  <study target>
ragweed (common ragweed, Ambrosia artemisiifolia)

>  <attribute measured>
Ragweed plant response rating

>  <test value>
60

$$$$

Continue with the molecule presented below.
Exercise: Fill in: Ragweed plant response rating of Cc1cc(C)c(N(COC(=O)C(C)(C)C)S(=O)(=O)C(F)(F)F)cc1N1CCC(OCC2CC(F)(F)C2)C1=O (centres unmarked) [Compound 55] is ___
Key: 50

---

System: oat, wild (wild oat, Avena fatua)
Assay: Test C preemergence, wild oat
Type: in vivo
Conditions: 31 g ai/ha Preemergence; 0 is no effect, 100 is complete control
Lab note: cut-off is 60. Strictly less in Plant response rating (0 to 100 scale), Oat, Wild is t. Exactly 60 or more is f.

Example entries begin here.
>  <compound>
Cc1cc(C)c(N(COC(=O)C(C)(C)C)S(=O)(=O)C(F)(F)F)cc1N1CCC(OCC2CC2(F)F)C1=O (stereo not drawn)

>  <class name>
t

$$$$
>  <compound>
Cc1cc(C)c(N(COC(=O)C(C)(C)C)S(=O)(=O)C(F)(F)F)cc1N1CCC(OCC2CCC2)C1=O (stereo not drawn)

>  <class name>
t

$$$$
>  <compound>
Cc1c(NS(=O)(=O)C(F)(F)F)cc(N2CCC(OC3CC3)C2=O)c(C)c1C (stereo not drawn)

>  <class name>
f

$$$$
>  <compound>
Cc1c(N2CCC(OC3CC3)C2=O)cc(N(COC(=O)C(C)(C)C)S(=O)(=O)C(F)(F)F)c(C)c1F (stereo not drawn)

>  <class name>
t

$$$$
>  <compound>
Cc1c(N2CCCC(OC3CC3)C2=O)cc(N(COC(=O)C(C)(C)C)S(=O)(=O)C(F)(F)F)c(C)c1F (stereo not drawn)

>  <class name>
t

$$$$
>  <compound>
Cc1cc(C)c(N2CCC(OCC3CCC3(F)F)C2=O)cc1NS(=O)(=O)C(F)(F)F (stereo not drawn)

>  <class name>
t

$$$$
>  <compound>
CC(=O)N(c1cc(N2CCC(OC3CC3)C2=O)c(C)cc1Cl)S(=O)(=O)C(F)(F)F (stereo not drawn)

>  <class name>
t

$$$$
>  <compound>
CCO/N=C1\CCN(c2cc(NS(=O)(=O)C(F)(F)F)c(C)cc2C)C1=O

>  <class name>
f

$$$$
>  <compound>
CCOC(=O)N(c1cc(N2CCC(OC3CC3)C2=O)c(C)cc1C)S(=O)(=O)C(F)(F)F (stereo not drawn)

>  <class name>
t

$$$$
>  <compound>
CC(=O)N(c1cc(N2CCC(OC3CC3)C2=O)c(C)cc1C)S(=O)(=O)C(F)(F)F (stereo not drawn)

>  <class name>
f

$$$$

Exercise: Take the compound Cc1cc(C)c(N2CCC(OCC3CCCC3)C2=O)cc1NS(=O)(=O)C(F)(F)F (stereo not drawn) and say whether its Plant response rating (0 to 100 scale), Oat, Wild is less than 60.
Key: t

Exercise: What do we get for Cc1cc(Cl)c(N(COC(=O)C(C)(C)C)S(=O)(=O)C(F)(F)F)cc1N1CCC(OC2CC2)C1=O (stereo not drawn) ?
Key: t

Exercise: Would you mind doing "C#CCO/N=C1\CCN(c2cc(NS(=O)(=O)C(F)(F)F)c(C)cc2C)C1=O" as well?
Key: f

---

System: ragweed (common ragweed, Ambrosia artemisiifolia)
Assay: Test C preemergence, ragweed
Format: in vivo
Details: 31 g ai/ha Preemergence; 0 is no effect, 100 is complete control
Entries and their measured Plant response rating (0 to 100 scale), Ragweed follow.
// response body must contain only the number

Exercise: Consider the compound shown here: Cc1c(NS(=O)(=O)C(F)(F)F)cc(N2CCC(OC3CCC3)C2=O)c(C)c1F (stereo not drawn) What is its recorded Plant response rating (0 to 100 scale), Ragweed?
Key: 90

Exercise: Now the compound "Cc1cc(C)c(N2CC/C(=N\O)C2=O)cc1NS(=O)(=O)C(F)(F)F"
Key: 0

Exercise: Quick one: Cc1cc(C)c(N(COC(=O)C(C)(C)C)S(=O)(=O)C(F)(F)F)cc1N1CCC(OCC2CC2)C1=O (stereo not drawn)
Key: 60

Exercise: // next record Cc1c(NS(=O)(=O)C(F)(F)F)cc(N2CCCC(OC3CCC3)C2=O)c(C)c1F (stereo not drawn)
Key: 70

Exercise: "CCO/N=C1\CCN(c2cc(NS(=O)(=O)C(F)(F)F)c(C)cc2C)C1=O" , same question.
Key: 100

Exercise: Can you check CC(=O)N(c1cc(N2CCC(OC3CC3)C2=O)c(C)cc1C)S(=O)(=O)C(F)(F)F (stereo not drawn) next?
Key: 80

---

Tested on: foxtail, giant (giant foxtail, Setaria faberi)
Assay: Test C preemergence, giant foxtail
Type: in vivo
Details: 31 g ai/ha Preemergence; 0 is no effect, 100 is complete control
# Plant response rating (0 to 100 scale), Foxtail, Giant per record follows

Known results for molecules:
>  <molecule>
Cc1cc(C)c(N2CCC(O)C2=O)cc1NS(=O)(=O)C(F)(F)F (stereo not drawn)

>  <test value>
80

$$$$
>  <molecule>
Cc1cc(C)c(N(C(=O)OC(C)C)S(=O)(=O)C(F)(F)F)cc1N1CCC(OC2CC2)C1=O (stereo not drawn)

>  <test value>
0

$$$$
>  <molecule>
Cc1cc(C)c(N(C(=O)OCC(C)C)S(=O)(=O)C(F)(F)F)cc1N1CCC(OC2CC2)C1=O (stereo not drawn)

>  <test value>
100

$$$$
>  <molecule>
Cc1cc(C)c(N(COC(=O)C(C)(C)C)S(=O)(=O)C(F)(F)F)cc1N1CCC(OCC2CCC2)C1=O (stereo not drawn)

>  <test value>
0

$$$$
>  <molecule>
Cc1c(NS(=O)(=O)C(F)(F)F)cc(N2CCC(OC3CCC3)C2=O)c(C)c1C (stereo not drawn)

>  <test value>
100

$$$$

Exercise: Look at this molecule and give its reported Plant response rating (0 to 100 scale), Foxtail, Giant. Cc1c(NS(=O)(=O)C(F)(F)F)cc(N2CCC(OCC3CCC3)C2=O)c(C)c1F (stereo not drawn)
Key: 100

Exercise: Same read-out for "C#CCO/N=C1\CCN(c2cc(NS(=O)(=O)C(F)(F)F)c(C)cc2C)C1=O" ?
Key: 100

Exercise: Can you check Cc1cc(C)c(N2CCC(OC3CC3)C2=O)cc1NS(=O)(=O)C(F)(F)F (single isomer, unassigned) [Compound 29] next?
Key: 90

Exercise: Could you do the same for Cc1cc(C)c(N(COC(=O)C(C)(C)C)S(=O)(=O)C(F)(F)F)cc1N1CCC(OCC2CC2(F)F)C1=O (stereo not drawn) , please?
Key: 0
